Assign Ratio IC50 to each entry below.
- testMethodNotes: Resistant index, ratio of IC50 for chloroquine-resistant Plasmodium falciparum K1 to IC50 for chloroquine-sensitive Plasmodium falciparum 3D7
- Format: functional

COc1ccc2c(c1)[n+]([O-])c(C#N)c(-c1ccccc1)[n+]2[O-] yielded Ratio IC50 of 0.49

COc1ccc2c(c1)[n+]([O-])c(C#N)c(-c1ccc(F)cc1)[n+]2[O-] yielded Ratio IC50 of 0.42

N#Cc1c(-c2ccc(Cl)cc2)[n+]([O-])c2ccc(C(F)(F)F)cc2[n+]1[O-] yielded Ratio IC50 of 1.13

Cc1ccc2c(c1)[n+]([O-])c(C#N)c(-c1ccccc1)[n+]2[O-] yielded Ratio IC50 of 0.48

COc1ccc2c(c1)[n+]([O-])c(C#N)c(-c1ccc(Cl)cc1)[n+]2[O-] yielded Ratio IC50 of 0.64

N#Cc1c(-c2ccc(Cl)cc2)[n+]([O-])c2ccccc2[n+]1[O-] yielded Ratio IC50 of 0.41

COc1ccc2c(c1)[n+]([O-])c(C#N)c(-c1ccc(OC(F)(F)F)cc1)[n+]2[O-] yielded Ratio IC50 of 1.35

N#Cc1c(-c2ccc(OC(F)(F)F)cc2)[n+]([O-])c2ccc(Cl)cc2[n+]1[O-] yielded Ratio IC50 of 1.31

N#Cc1c(-c2ccccc2)[n+]([O-])c2ccc(C(F)(F)F)cc2[n+]1[O-] yielded Ratio IC50 of 0.55

COc1ccc2c(c1)[n+]([O-])c(C#N)c(-c1ccc(C)cc1)[n+]2[O-] yielded Ratio IC50 of 2.83

Cc1cc2c(cc1C)[n+]([O-])c(-c1ccc(F)cc1)c(C#N)[n+]2[O-] yielded Ratio IC50 of 0.73

Cc1ccc2c(c1)[n+]([O-])c(C#N)c(-c1ccc(OC(F)(F)F)cc1)[n+]2[O-] yielded Ratio IC50 of 0.51

Cc1ccc2c(c1)[n+]([O-])c(C#N)c(-c1ccc(Cl)cc1)[n+]2[O-] yielded Ratio IC50 of 0.39

N#Cc1c(-c2ccc(OC(F)(F)F)cc2)[n+]([O-])c2ccccc2[n+]1[O-] yielded Ratio IC50 of 0.21

Cc1ccc(-c2c(C#N)[n+]([O-])c3cc(C(F)(F)F)ccc3[n+]2[O-])cc1 yielded Ratio IC50 of 1.21

N#Cc1c(-c2ccc(OC(F)(F)F)cc2)[n+]([O-])c2ccc(C(F)(F)F)cc2[n+]1[O-] yielded Ratio IC50 of 0.28

Cc1ccc(-c2c(C#N)[n+]([O-])c3cc(C)ccc3[n+]2[O-])cc1 yielded Ratio IC50 of 0.73

N#Cc1c(-c2ccc(F)cc2)[n+]([O-])c2ccc(C(F)(F)F)cc2[n+]1[O-] yielded Ratio IC50 of 0.79

Cc1ccc2c(c1)[n+]([O-])c(C#N)c(-c1ccc(F)cc1)[n+]2[O-] yielded Ratio IC50 of 0.42

----------
- testMethodNotes: Selectivity index, ratio of IC50 for human KB cells to IC50 for chloroquine-resistant Plasmodium falciparum K1
- Type: toxicity, cell-based
- experimentalContext: read-out: Ratio IC50
// bucketize selectivity ratio: A (below 10), B (10 to below 20), C (20 or more)

Bin this entry: Cc1ccc(-c2c(C#N)[n+]([O-])c3cc(C)ccc3[n+]2[O-])cc1
C

Bin this entry: N#Cc1c(-c2ccccc2)[n+]([O-])c2ccc(C(F)(F)F)cc2[n+]1[O-]
B

Bin this entry: COc1ccc2c(c1)[n+]([O-])c(C#N)c(-c1ccc(F)cc1)[n+]2[O-]
C

Bin this entry: COc1ccc2c(c1)[n+]([O-])c(C#N)c(-c1ccc(OC(F)(F)F)cc1)[n+]2[O-]
A

Bin this entry: Cc1ccc(-c2c(C#N)[n+]([O-])c3cc(C(F)(F)F)ccc3[n+]2[O-])cc1
A

Bin this entry: N#Cc1c(-c2ccc(F)cc2)[n+]([O-])c2ccc(C(F)(F)F)cc2[n+]1[O-]
A

Bin this entry: N#Cc1c(-c2ccc(OC(F)(F)F)cc2)[n+]([O-])c2ccc(Cl)cc2[n+]1[O-]
A

Bin this entry: Cc1ccc2c(c1)[n+]([O-])c(C#N)c(-c1ccc(Cl)cc1)[n+]2[O-]
C

Bin this entry: N#Cc1c(-c2ccc(Cl)cc2)[n+]([O-])c2ccc(C(F)(F)F)cc2[n+]1[O-]
A

Bin this entry: N#Cc1c(-c2ccc(OC(F)(F)F)cc2)[n+]([O-])c2ccccc2[n+]1[O-]
B

Bin this entry: COc1ccc2c(c1)[n+]([O-])c(C#N)c(-c1ccccc1)[n+]2[O-]
B

Bin this entry: COc1ccc2c(c1)[n+]([O-])c(C#N)c(-c1ccc(Cl)cc1)[n+]2[O-]
C

Bin this entry: Cc1ccc2c(c1)[n+]([O-])c(C#N)c(-c1ccc(OC(F)(F)F)cc1)[n+]2[O-]
C

Bin this entry: N#Cc1c(-c2ccc(Cl)cc2)[n+]([O-])c2ccccc2[n+]1[O-]
C

Bin this entry: Cc1ccc2c(c1)[n+]([O-])c(C#N)c(-c1ccccc1)[n+]2[O-]
B

Bin this entry: COc1ccc2c(c1)[n+]([O-])c(C#N)c(-c1ccc(C)cc1)[n+]2[O-]
A

Bin this entry: Cc1ccc2c(c1)[n+]([O-])c(C#N)c(-c1ccc(F)cc1)[n+]2[O-]
C

Bin this entry: N#Cc1c(-c2ccc(OC(F)(F)F)cc2)[n+]([O-])c2ccc(C(F)(F)F)cc2[n+]1[O-]
C
